Value source: patent JP2015013808A

tested on: human cancer cells [ヒトがん細胞]; test: Growth inhibition / cytotoxicity in cancer cell lines (summary over lines); type: cell-based; conditions: cancer cells versus normal fibroblasts
measure: cancer cell selectivity of growth inhibition and cytotoxicity (in words)

>>> observed_value("NNC(=O)c1ccccc1I [Y-R2, 2-iodobenzohydrazide, reference compound]")
"そのような効果は認められなかった"
>>> observed_value("CCn1c2ccccc2c2cc(C=O)ccc21 [Y-R1, N-ethylcarbazole-3-carboxaldehyde, reference compound]")
"そのような効果は認められなかった"
